# TARGET_OR_SYSTEM: CFTR ΔF508 mutant (Homo sapiens, UniProt P13569, DEL508-508)
# Construct: expressed in transfected cells; host or cells: CFBE41o- (adenoviral transduction)
# Sequence (P13569 with tags, fused parts or gaps DEL508-508): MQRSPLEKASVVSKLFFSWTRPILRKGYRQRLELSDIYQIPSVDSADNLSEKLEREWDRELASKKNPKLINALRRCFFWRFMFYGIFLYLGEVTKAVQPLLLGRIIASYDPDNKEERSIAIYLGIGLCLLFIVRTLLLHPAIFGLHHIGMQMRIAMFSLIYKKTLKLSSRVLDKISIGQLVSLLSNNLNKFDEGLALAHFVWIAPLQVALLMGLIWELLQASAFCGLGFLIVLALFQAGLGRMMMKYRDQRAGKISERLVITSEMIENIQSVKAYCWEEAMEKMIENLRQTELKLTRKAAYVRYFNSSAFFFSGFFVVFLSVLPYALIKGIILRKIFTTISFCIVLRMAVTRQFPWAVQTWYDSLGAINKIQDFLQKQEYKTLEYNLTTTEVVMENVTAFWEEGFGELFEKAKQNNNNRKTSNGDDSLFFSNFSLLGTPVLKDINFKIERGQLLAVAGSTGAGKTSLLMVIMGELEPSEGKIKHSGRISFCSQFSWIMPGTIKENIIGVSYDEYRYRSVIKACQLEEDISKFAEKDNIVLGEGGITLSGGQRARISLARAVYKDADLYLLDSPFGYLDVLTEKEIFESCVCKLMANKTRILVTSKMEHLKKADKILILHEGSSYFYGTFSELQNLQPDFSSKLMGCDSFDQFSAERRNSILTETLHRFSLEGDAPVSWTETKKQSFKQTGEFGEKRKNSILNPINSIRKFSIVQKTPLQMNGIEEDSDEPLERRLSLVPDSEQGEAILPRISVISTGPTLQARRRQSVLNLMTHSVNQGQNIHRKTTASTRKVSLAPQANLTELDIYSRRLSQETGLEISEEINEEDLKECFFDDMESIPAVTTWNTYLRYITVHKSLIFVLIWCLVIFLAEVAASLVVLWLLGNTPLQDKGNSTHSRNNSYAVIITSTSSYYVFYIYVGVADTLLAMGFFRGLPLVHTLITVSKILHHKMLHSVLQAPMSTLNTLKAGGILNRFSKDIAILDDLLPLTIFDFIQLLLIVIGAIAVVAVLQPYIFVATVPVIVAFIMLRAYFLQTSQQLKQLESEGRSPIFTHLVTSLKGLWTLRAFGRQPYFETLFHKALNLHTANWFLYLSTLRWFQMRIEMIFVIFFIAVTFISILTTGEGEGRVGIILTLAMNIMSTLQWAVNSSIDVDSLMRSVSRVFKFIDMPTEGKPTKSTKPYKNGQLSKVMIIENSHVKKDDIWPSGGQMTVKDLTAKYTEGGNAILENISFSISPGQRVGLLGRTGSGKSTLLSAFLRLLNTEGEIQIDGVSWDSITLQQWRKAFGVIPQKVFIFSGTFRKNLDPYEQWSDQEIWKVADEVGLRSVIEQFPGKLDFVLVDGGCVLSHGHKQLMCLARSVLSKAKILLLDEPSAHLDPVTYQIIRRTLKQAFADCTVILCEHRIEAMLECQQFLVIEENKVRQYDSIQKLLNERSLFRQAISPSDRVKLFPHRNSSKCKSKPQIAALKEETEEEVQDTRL
# PROTOCOL_DESCRIPTION: YFP-halide influx assay for the CFTR-ΔF508 mutation, gluconate buffer
# Format: cell-based
# CONDITION_NOTES: CFBE41o- cells, forskolin 10.67 μM
Provide the recorded pEC50 for the entries that follow.
The read-out pEC50 is expressed as -log10 of concentration in moles per litre.

Data point: COC1CCN(S(=O)(=O)c2cc(C(N)=O)c(NC(=O)c3ccccc3F)s2)CC1 ; pEC50 = 7.11

Data point: NC(=O)c1cc(S(=O)(=O)N2CCCCC2)sc1NC(=O)C1CCC(F)(F)CC1 ; pEC50 = 6.53

Data point: CCc1cc(C(=O)Nc2sc(S(=O)(=O)c3ccccc3F)cc2C(N)=O)n[nH]1 ; pEC50 = 7.22

Data point: NC(=O)c1cc(S(=O)(=O)N2CCCCC2)sc1NC(=O)C1CC1 ; pEC50 = 6.13

Data point: COc1ccc(C(=O)Nc2sc(S(=O)(=O)N3CCCCC3)cc2C(N)=O)cc1 ; pEC50 = 6.32

Data point: NC(=O)c1cc(S(=O)(=O)N2CCOCC2)sc1NC(=O)c1ccc(F)cc1O ; pEC50 = 7.01

Data point: Cc1nnc(C(=O)Nc2sc(S(=O)(=O)N3CCCCC3)cc2C(N)=O)o1 ; pEC50 = 5.01

Data point: NC(=O)c1cc(S(=O)(=O)N2CCCCC2)sc1NC(=O)C1(C(F)(F)F)CC1 ; pEC50 = 6.05

---

Provide the recorded EC50 for the entries that follow.
# TARGET_OR_SYSTEM: CFTR ΔF508 mutant (Homo sapiens, UniProt P13569, DEL508-508)
# Construct: expressed in transfected cells; host or cells: CFBE41o- (adenoviral transduction)
# PROTOCOL_DESCRIPTION: YFP-halide influx assay for the CFTR-ΔF508 mutation (384 well, FDSS/μCell)
# Assay type: cell-based
# CONDITION_NOTES: CFBE41o- cells, CFTR-ΔF508, 1×D-PBS, fluorescence after 36 seconds
Give the value, in units of nM, as a plain number.

Data point: CC(O)C(=O)Nc1sc(S(=O)(=O)c2ccccc2Cl)cc1C(N)=O (stereo not shown) ; EC50 = 12.3

Data point: NC(=O)c1cc(S(=O)(=O)N2CCOc3ccccc32)sc1NC(=O)C1(O)CC1 ; EC50 = 9.6

Data point: CC(C)(O)C(=O)Nc1sc(S(=O)(=O)c2cc(Cl)ccc2OC(F)(F)F)cc1C(N)=O ; EC50 = 14.9

Data point: CC(C)(O)C(=O)Nc1sc(S(=O)(=O)c2ccccc2CC(F)(F)F)cc1C(N)=O ; EC50 = 8.1

Data point: CC(C)[C@H](O)C(=O)Nc1sc(S(=O)(=O)c2ccc(F)cc2C(F)(F)F)cc1C(N)=O ; EC50 = 17.2

Data point: CC(C)CC(O)C(=O)Nc1sc(S(=O)(=O)c2ccc(OC(F)(F)F)cc2)cc1C(N)=O (stereo not shown) ; EC50 = 470

Data point: C[C@H](CO)C(=O)Nc1sc(S(=O)(=O)c2ccc(OC(F)(F)F)cc2)cc1C(N)=O ; EC50 = 66.1

Data point: CC(C)(O)C(=O)Nc1sc(S(=O)(=O)c2nc(C(C)(C)C)ccc2C(F)(F)F)cc1C(N)=O ; EC50 = 2.58

Data point: CC(C)(O)C(=O)Nc1sc(S(=O)(=O)c2ccc(C(F)F)cn2)cc1C(N)=O ; EC50 = 294

Data point: NC(=O)c1cc(S(=O)(=O)N2CC=C(C(F)(F)F)CC2)sc1NC(=O)c1ccccc1F ; EC50 = 79.5

Data point: CC(C)(O)C(=O)Nc1sc(S(=O)(=O)c2cc(Cl)cc(C(F)(F)F)c2)cc1C(N)=O ; EC50 = 17.5

Data point: CC(C)c1ccccc1S(=O)(=O)c1cc(C(N)=O)c(NC(=O)c2ccccc2F)s1 ; EC50 = 84.9

Data point: CC(C)(O)C(=O)Nc1sc(S(=O)(=O)c2ccccc2OC(F)(F)F)cc1C(N)=O ; EC50 = 7.5

Data point: CC(CO)C(=O)Nc1sc(S(=O)(=O)c2ccc(Cl)cc2OC(F)(F)F)cc1C(N)=O (stereo not shown) ; EC50 = 22.3

Data point: CC(O)C(=O)Nc1sc(S(=O)(=O)c2ccccc2OC(F)(F)F)cc1C(N)=O (stereo not shown) ; EC50 = 3.5

Data point: CC(C)(O)C(=O)Nc1sc(S(=O)(=O)c2ccc(C(F)(F)F)c(Cl)n2)cc1C(N)=O ; EC50 = 10.9

Data provenance: patent US9382254B2
